Please respond with reported inhibition for every item in the list.
- TARGET SYSTEM: Histone deacetylase 2 (Homo sapiens)
- Sequence (Q92769 whole entry): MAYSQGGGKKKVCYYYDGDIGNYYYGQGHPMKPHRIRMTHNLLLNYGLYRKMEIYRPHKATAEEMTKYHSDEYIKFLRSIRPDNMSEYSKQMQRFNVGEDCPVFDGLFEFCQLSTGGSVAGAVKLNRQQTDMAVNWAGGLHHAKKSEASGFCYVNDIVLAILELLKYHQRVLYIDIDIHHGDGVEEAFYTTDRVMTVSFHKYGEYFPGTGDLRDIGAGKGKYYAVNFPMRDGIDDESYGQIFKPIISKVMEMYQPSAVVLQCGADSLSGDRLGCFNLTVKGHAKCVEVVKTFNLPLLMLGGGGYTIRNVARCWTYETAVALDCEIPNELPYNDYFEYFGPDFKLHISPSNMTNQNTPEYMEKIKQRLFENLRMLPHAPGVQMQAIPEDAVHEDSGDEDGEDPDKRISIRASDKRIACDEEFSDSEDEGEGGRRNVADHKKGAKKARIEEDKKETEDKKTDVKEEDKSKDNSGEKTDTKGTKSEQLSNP
- ASSAY TEXT: Inhibition of full-length recombinant human C-terminal GST tagged HDAC2 expressed in Sf9 insect cells using aminoluciferin peptide substrate at 100 nM preincubated for 3 hrs followed by substrate addition and measured after 30 mins by HDAC-Glo I/II chemiluminescence assay
- COND: time 3.5 hrs
Write the value in % as a bare number.

Ask: Can you share its inhibition? I mean this molecule: `COc1ccc(-n2cc(C(=O)Nc3cc(-c4ccsc4)ccc3N)nn2)cc1`
Reply: 22

Ask: Look up inhibition for this molecule: `Nc1ccc(-c2ccsc2)cc1NC(=O)CCc1cn(Cc2cc3ccccc3s2)nn1`
Reply: 3

Ask: If you can, please state the reported inhibition value of `Nc1ccc(-c2ccccc2)cc1NC(=O)c1cn(Cc2cccc3ccccc23)nn1` .
Reply: 2

Ask: Requested read-out: inhibition. Entry: `Nc1ccc(-c2ccccc2)cc1NC(=O)c1cn(CC(=O)c2ccccc2)nn1`
Reply: 0

Ask: Form field: reported inhibition of `Nc1ccc(-c2cccnc2)cc1NC(=O)CCc1cn(CCc2cccc([N+](=O)[O-])c2)nn1`
Reply: 15

Ask: Returns the measured inhibition for the input molecule. Input: `Nc1ccc(-c2cccs2)cc1NC(=O)c1cn(CCc2ccccc2C(F)(F)F)nn1`
Reply: 5

Ask: What value of measured inhibition is listed for `Nc1ccc(-c2ccsc2)cc1NC(=O)c1cn(CCc2ccc(F)cc2)nn1` ?
Reply: 0

Ask: Which inhibition is reported for this molecule? `Nc1ccc(-c2cccs2)cc1NC(=O)c1cn(CCCCCC(=O)O)nn1`
Reply: 0

Ask: Entry `Nc1ccc(-c2ccsc2)cc1NC(=O)CCc1cn(CCC2CCCC2)nn1` : reported inhibition = ?
Reply: 0

Ask: Give the measured inhibition of `Nc1ccc(-c2ccsc2)cc1NC(=O)CCc1cn(CC2CCCCC2)nn1` .
Reply: 0

Ask: Using the record for `Cc1ccccc1CCn1cc(C(=O)Nc2cc(-c3ccsc3)ccc2N)nn1` , report its inhibition.
Reply: 0

Ask: Quick one: inhibition for `Cc1csc(CCn2cc(-c3ccc(C(=O)Nc4cc(-c5cccs5)ccc4N)cc3)nn2)n1` ?
Reply: 68

Ask: State the recorded inhibition for this entry: `Nc1ccc(-c2cccs2)cc1NC(=O)CCc1cn(-c2ccc(I)cc2)nn1`
Reply: 8

Ask: For `Nc1ccc(-c2cccs2)cc1NC(=O)c1cn(/C=C/c2ccccc2)nn1` , what is its reported inhibition?
Reply: 12

Ask: inhibition lookup needed for `Nc1ccc(-c2cccs2)cc1NC(=O)c1cccc(-c2cn(CS(=O)(=O)c3ccccc3)nn2)c1` , thanks.
Reply: 3

Ask: Returns the measured inhibition for the input molecule. Input: `Nc1ccc(-c2ccsc2)cc1NC(=O)CCc1cn(-c2cccc3ccccc23)nn1`
Reply: 0

Ask: Could you tell me which inhibition is on file for `Nc1ccc(-c2ccc(F)cc2)cc1NC(=O)c1cn(Cc2ccc(Oc3ccccc3)cc2)nn1` ?
Reply: 5

Ask: Reported inhibition, molecule `Nc1ccc(-c2cccs2)cc1NC(=O)c1cccc(-c2cn(CCCCCc3ccccc3)nn2)c1` : ____
Reply: 0

Ask: Request the reported inhibition associated with `Nc1ccc(-c2cccnc2)cc1NC(=O)CCc1cn(CCc2ccccc2Cl)nn1`
Reply: 9

Ask: So what does the record say about inhibition for `Nc1ccc(-c2cccs2)cc1NC(=O)CCc1cn(Cc2ccc3ccccc3n2)nn1` ?
Reply: 22

Ask: For the molecule shown here, `Nc1ccc(-c2ccccc2)cc1NC(=O)CCc1cn(CCc2ccccc2C(F)(F)F)nn1` , give the reported inhibition.
Reply: 0

Ask: If you can, please state the reported inhibition value of `Nc1ccc(-c2ccc(F)cc2)cc1NC(=O)CCc1cn(CCc2ccc(F)cc2)nn1` .
Reply: 17

Ask: Suppose we examine the molecule `Cc1ccc(CCn2cc(C(=O)Nc3cc(-c4ccsc4)ccc3N)nn2)cc1` ; what inhibition value has been reported?
Reply: 8

Ask: Sample `Nc1ccc(-c2cccs2)cc1NC(=O)CCc1cn(CCc2ccccc2C(F)(F)F)nn1` — what was its inhibition?
Reply: 0

Ask: Request the reported inhibition associated with `COc1ccc(-n2cc(-c3ccc(C(=O)Nc4cc(-c5cccs5)ccc4N)cc3)nn2)cc1`
Reply: 0

Ask: Request the reported inhibition associated with `Nc1ccc(-c2cccs2)cc1NC(=O)c1cccc(-c2cn(CCC3CCCC3)nn2)c1`
Reply: 0

Ask: Data request, read-out inhibition, for `Nc1ccc(-c2ccsc2)cc1NC(=O)c1cn(CCc2ccccn2)nn1`
Reply: 1

Ask: What does the record list as inhibition for `Nc1ccc(-c2cccnc2)cc1NC(=O)CCc1cn(-c2ccccc2-c2ccccc2)nn1` ?
Reply: 9

Ask: I'd like to know its inhibition. The molecule in question is `COc1ccc(Cn2cc(CCC(=O)Nc3cc(-c4ccc(F)cc4)ccc3N)nn2)cc1`
Reply: 17

Ask: Which measured inhibition value corresponds to `Nc1ccc(-c2cccs2)cc1NC(=O)c1cn(CCc2ccc(F)cc2)nn1` ?
Reply: 0

Source listed as ChEMBL document CHEMBL5390237.
